molecular target: HLA-A*0201 (Homo sapiens, UniProt P04439, D140Y/D185E/D98H/E176V/E277Q/G131W/G231S/I119V/I121R/I166T/I218V/L300P/L318F/N151K/N90K/P208A/P217A/Q86G/Q94H/R138H/R169H/T345S); construct: expressed in transfected cells; host or cells: T2 cells (ATCC CRL-1992), TAP-deficient; experiment: HLA-A*0201 binding (fixation) assay on T2 cells; conditions: Table 4; T2 cells, 100 µM peptide, 100 ng/ml hβ2m, serum-free RPMI 1640, 16 h, 37 °C; BB7.2 mAb, flow cytometry; FI = (MFI with peptide − MFI without peptide)/MFI without peptide
readout: FI (fluorescence index)
// no unit, no text: just the number

QUERY: # return recorded FI (fluorescence index) for entry CMLGTYTQDF [ppCT91–100]
RESULT: 0.30

QUERY: # return recorded FI (fluorescence index) for entry LLAALVQDYL [ppCT50–59]
RESULT: 2.58

QUERY: # return recorded FI (fluorescence index) for entry FLALSILVL [ppCT9–17]
RESULT: 1.27

QUERY: # return recorded FI (fluorescence index) for entry VLLQAGSLHA [ppCT16–25]
RESULT: 0.24

* * *

test system: NSCLC patient PBMCs; experiment: In vitro peptide stimulation of PBMCs, intracellular IFN-γ staining of CD8+ T cells; assay type: cell-based, human; conditions: HLA-A2+ NSCLC patients; PBMCs stimulated twice at 1-week intervals with 20 µM peptide, restimulated 6 h with 2.5 µM; intracellular staining; positive above mean of medium + 2 SD
For each of the sequences below, state its patients who triggered IFN-γ-producing CD8+ T cells towards the peptide.

QUERY: # return recorded patients who triggered IFN-γ-producing CD8+ T cells towards the peptide for entry FLALSILVL [ppCT9–17]
RESULT: 8 out of 13

QUERY: # return recorded patients who triggered IFN-γ-producing CD8+ T cells towards the peptide for entry CMLGTYTQDF [ppCT91–100]
RESULT: 7 out of 15

QUERY: # return recorded patients who triggered IFN-γ-producing CD8+ T cells towards the peptide for entry VLLQAGSLHA [ppCT16–25]
RESULT: 5 out of 15

QUERY: # return recorded patients who triggered IFN-γ-producing CD8+ T cells towards the peptide for entry MGFQKFSPFLALSIL [ppCT1–15]
RESULT: 7 out of 10

QUERY: # return recorded patients who triggered IFN-γ-producing CD8+ T cells towards the peptide for entry LLAALVQDYL [ppCT50–59]
RESULT: 10 out of 15

QUERY: # return recorded patients who triggered IFN-γ-producing CD8+ T cells towards the peptide for entry GNLSTCMLGTYTQDF [ppCT86–100, 15-aa-long peptide from the ppCT precursor protein]
RESULT: 5 out of 10

* * *

target: HLA-A*0201 (Homo sapiens, UniProt P04439, D140Y/D185E/D98H/E176V/E277Q/G131W/G231S/I119V/I121R/I166T/I218V/L300P/L318F/N151K/N90K/P208A/P217A/Q86G/Q94H/R138H/R169H/T345S); construct: expressed in transfected cells; host or cells: T2 cells (ATCC CRL-1992), TAP-deficient; assay: HLA-A*0201 binding (fixation) assay on T2 cells; conditions: Supplementary Table 1; T2 cells; FI = (MFI with the given peptide − MFI without peptide)/MFI without peptide
For each of the substances below, state its FI (fluorescence index).
// no unit, no text: just the number

QUERY: # return recorded FI (fluorescence index) for entry FLALSILVLL [ppCT residues 9-18]
RESULT: 0.19

QUERY: # return recorded FI (fluorescence index) for entry AL VQDYVQMK [ppCT53–62, ppCT residues 53-62]
RESULT: 0.03

QUERY: # return recorded FI (fluorescence index) for entry MGFQKFSPFL [ppCT residues 1-10]
RESULT: 0.03

QUERY: # return recorded FI (fluorescence index) for entry FQKFSPFLAL [ppCT residues 3-12]
RESULT: 0.04

QUERY: # return recorded FI (fluorescence index) for entry TLSEDEARLL [ppCT residues 41-50]
RESULT: 0.19

QUERY: # return recorded FI (fluorescence index) for entry FSPFLALSIL [ppCT residues 6-15]
RESULT: 0.01

QUERY: # return recorded FI (fluorescence index) for entry YVQMKASE L [ppCT residues 58-66]
RESULT: 0.01

QUERY: # return recorded FI (fluorescence index) for entry YT QDFNKFHT [ppCT residues 96-105]
RESULT: 0.02

QUERY: # return recorded FI (fluorescence index) for entry KFSPFLALSI [ppCT5–14, ppCT residues 5-14]
RESULT: 0.04

QUERY: # return recorded FI (fluorescence index) for entry TLSEDEARL [ppCT41–49, ppCT residues 41-49]
RESULT: 1.78
